# reported median seed-adjusted z-score; entries follow
Assay: Novel Modifiers of Survival Motor Neuron (SMN) Protein: Gene Identification via Genome-wide siRNA Screen;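 further: luminescence tracks full-length SMN protein made from the SMN2 reporter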
Details: HEK293T SMN2-luciferase reporter, siRNA knockdown, 72 h; actives lie on both sides
The whole screen tested about 31,000 sequences, of which about 1,400 (4.5%) were called active. This excerpt belongs to a sample that is enriched for actives.
Could you respond with only the numeric value?

Ask | GET /values?readout=median seed-adjusted z-score&item= GACCGUUUAAUGAAGCUUUTT against SPTLC2
Reply | 0

Ask | GET /values?readout=median seed-adjusted z-score&item= CCACGUACCCUUCAUCAAATT against KIF11
Reply | -0.381

Ask | GET /values?readout=median seed-adjusted z-score&item= CCCACAUUCUUGUCCGGCATT against ADAMTS4
Reply | -0.0153

# input for lookup
Ask | GET /values?readout=median seed-adjusted z-score&item= GACUGGAGAUAUCAAGGAATT against SQLE
Reply | -1.14

###

Test: Novel Modifiers of Survival Motor Neuron (SMN) Protein: Gene Identification via Genome-wide siRNA Screen;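 further: luminescence tracks full-length SMN protein made from the SMN2 reporter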
Conditions: HEK293T SMN2-luciferase reporter, siRNA knockdown, 72 h; actives lie on both sides
The whole screen tested about 31,000 sequences, of which about 1,400 (4.5%) were called active. The sample as a whole holds a higher share of actives than the screen did.
Returns one of yes (1) or no (0); yes (1) when median seed-adjusted z-score is >= 0.07.

Ask | Kindly determine if median seed-adjusted z-score recorded for GGAUUAAAGUGUGAAGACUTT against PRKCD is above or exactly 0.07.
Reply | no (0)

Ask | Kindly determine if median seed-adjusted z-score recorded for CCAUGGAUUUUAUGAGGAATT against ECHDC1 is above or exactly 0.07.
Reply | yes (1)

Ask | Kindly determine if median seed-adjusted z-score recorded for GAACUAAUCAGGAAGCUUATT against DHX40 is above or exactly 0.07.
Reply | no (0)

***
Ask | Kindly determine if median seed-adjusted z-score recorded for CUGUUUAACUGUGAGAUCATT against ANP32E is above or exactly 0.07.
Reply | no (0)

Ask | Kindly determine if median seed-adjusted z-score recorded for AGGUCUUUCCCAACGAGGATT against UBE2S is above or exactly 0.07.
Reply | yes (1)

Ask | Kindly determine if median seed-adjusted z-score recorded for UCUUCUCCCUGAUAAAGUATT against SLC6A13 is above or exactly 0.07.
Reply | yes (1)

Ask | Kindly determine if median seed-adjusted z-score recorded for AGAUGAAACUUCUACUGAATT against POLR2H is above or exactly 0.07.
Reply | no (0)

Ask | Kindly determine if median seed-adjusted z-score recorded for CAUGCAGCCUUAAGCCUCATT against ILKAP is above or exactly 0.07.
Reply | no (0)

Ask | Kindly determine if median seed-adjusted z-score recorded for AGCUCUUAUUAGCUGCAUATT against MS4A7 is above or exactly 0.07.
Reply | yes (1)

Ask | Kindly determine if median seed-adjusted z-score recorded for CAAAGUGACCAAGCAGAGATT against SF3A2 is above or exactly 0.07.
Reply | no (0)

Ask | Kindly determine if median seed-adjusted z-score recorded for GGCUUUGAAUUCAAUCUAUTT against GPR149 is above or exactly 0.07.
Reply | no (0)
